experiment: Plasma levels of parent compounds after transdermal administration to hairless mice; type: in vivo; details: 20% solution or suspension in 1 ml 70% ethanol, transdermal on 10 cm^2 back skin
Measured metric: Plasma concentration of the parent compound (peak plasma level) (ng/mL)
# output: bare number, implied unit ng/mL

Plasma concentration of the parent compound (peak plasma level) for CC(=O)Nc1ccc(OC(=O)c2ccccc2O)cc1 [acetaminosalol, 4-acetamidophenyl salicylate, reference compound] ?
100

---

assay: Aqueous solubility of HPPs and parent drugs; assay type: physicochemical; settings: water (aqueous), read-out: Solubility
The molecules listed here are annotated with their solubility.

molecule="CC(=O)Nc1ccc(O)cc1 [acetaminophen, N-Acetyl-p-aminophenol, reference compound]" value="< 200 µg/mL"

Please look at the following molecule next.
Give the measured solubility of CC(=O)Nc1ccc(OC(=O)c2ccccc2O)cc1 [acetaminosalol, 4-acetamidophenyl salicylate, reference compound] .
< 100 µg/mL

---

test: In vitro penetration rate through human skin in modified Franz cells; type: in vitro ADME; conditions: isolated human skin 360-400 μm, 2 mL, 20% in 0.2 M phosphate buffer pH 7.4
The following compounds are listed with their measured In vitro Penetration rate (apparent flux) values.
Kindly answer with a numeric value in μg/cm^2/h, unit omitted.

Check out these entries, answers already filled in.
compound=CC(=O)Nc1ccc(OC(=O)c2ccccc2OC(=O)CCCN(C)C)cc1.Cl value=1800
compound="CC(=O)Nc1ccc(O)cc1 [acetaminophen, N-Acetyl-p-aminophenol, reference compound]" value=10
compound=CC(=O)Nc1ccc(OC(=O)CCCN(C)C)cc1.Cl value=1500

Alright, here's another compound for you.
For the compound shown here, CC(=O)Nc1ccc(OC(=O)c2ccccc2O)cc1 [acetaminosalol, 4-acetamidophenyl salicylate, reference compound] , give the reported In vitro Penetration rate (apparent flux).
10

---

assay: Plasma levels of parent compounds after transdermal administration to hairless mice; format: in vivo; settings: 20% solution or suspension in 1 ml 70% ethanol, transdermal on 10 cm^2 back skin
Measured metric: Plasma concentration of the parent compound (peak plasma level) (ng/mL)
Report the value in ng/mL with no unit label.

Answered cases to consult:
molecule=CC(=O)Nc1ccc(OC(=O)CCCN(C)C)cc1.Cl value=30000
molecule="CC(=O)Nc1ccc(O)cc1 [acetaminophen, N-Acetyl-p-aminophenol, reference compound]" value=100

Attention now shifts to the item below.
Tell me the measured Plasma concentration of the parent compound (peak plasma level) of CC(=O)Nc1ccc(OC(=O)c2ccccc2OC(=O)CCCN(C)C)cc1.Cl , please.
30000
